- measurement_target: T1, human B7-H4 extracellular domain (human, UniProt Q7Z7D3 29-258)
- T1 construct: Soluble ECD used as SPR analyte; also called huB7-H4 ECD; huB7-H4
- T1 sequence: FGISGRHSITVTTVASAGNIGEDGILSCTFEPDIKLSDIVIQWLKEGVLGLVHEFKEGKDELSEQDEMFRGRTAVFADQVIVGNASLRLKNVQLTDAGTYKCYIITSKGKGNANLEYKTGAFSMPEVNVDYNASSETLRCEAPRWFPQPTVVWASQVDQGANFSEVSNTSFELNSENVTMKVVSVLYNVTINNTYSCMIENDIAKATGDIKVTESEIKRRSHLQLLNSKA
- procedure_text: SPR 37 C; IgG1 on anti-hFc chip, ECD analyte;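 note: antibodies captured, then B7-H4 ECD injected at five 3-fold dilutions from 300 nM, 65 s association and 600 s dissociation, fitted to a 1:1 Langmuir model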
Lab note: compare Kd with 10 nM, writing YES if less and NO if equal or more.

INSERT INTO results (binder, group_label) VALUES
  ('B7-H4 antibody 1116 (antibody, human IgG1, kappa, V domains shown, IgG1 mAb format) VH: EVQLLESGGGLVQPGGSLRLSCAASGFTFSSYAMSWVRQAPGKGLEWVSAISGGGGSTYYADSVKGRFTISRDNSKNTLYLQMNSLRAEDTAVYYCARDIQWYGESTLFDYWGQGTLVTVSS VL: DIQMTQSPSSLSASVGDRVTITCRASQSTRSWLAWHQQKPGKAPKLLIYKASSLESGVPSRFSGSGSGTDFTLTISSLQPEDFATYYCQQYGSYSRTFGQGTKVEIKR', 'YES'),
  ('B7-H4 antibody 1117 (antibody, human IgG1, kappa, V domains shown, IgG1 mAb format) VH: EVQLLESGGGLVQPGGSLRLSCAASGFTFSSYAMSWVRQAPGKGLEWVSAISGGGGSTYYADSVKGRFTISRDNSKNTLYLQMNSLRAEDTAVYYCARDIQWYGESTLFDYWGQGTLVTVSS VL: DIQMTQSPSSLSASVGDRVTITCRASQSTRSWLAWLQQKPGKAPKLLIYKASSLESGVPSRFSGSGSGTDFTLTISSLQPEDFATYYCQQYGSYSRTFGQGTKVEIKR', 'YES'),
  ('B7-H4 antibody 1115 (antibody, human IgG1, kappa, V domains shown, IgG1 mAb format) VH: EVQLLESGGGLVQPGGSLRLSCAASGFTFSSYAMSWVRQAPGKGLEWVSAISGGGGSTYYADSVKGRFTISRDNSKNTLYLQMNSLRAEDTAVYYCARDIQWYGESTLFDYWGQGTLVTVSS VL: DIQMTQSPSSLSASVGDRVTITCRASQSTRSWLAWYQQKPGKAPKLLIYKASSLESGVPSRFSGSGSGTDFTLTISSLQPEDFATYYCQQYGSYSRTFGQGTKVEIKR', 'YES'),
  ('B7-H4 antibody 0052 (antibody, human IgG1, kappa, V domains shown, IgG1 mAb format; parental; also called 28D10) VH: QVQLQQWGAGLLKPSETLSLTCAVYGGSFSGYYWNWIRQPPGKGLEWIGEINHSGSTKYNPSLKSRVTISGDTSKNQFSLKLNSVTAADTAVYYCVRGLYNWNVDSWGQGTLVTVSS VL: DIQMTQSPSSLSASVGDRVTITCRASQGIRNDLGWYQQKPGKAPKRLIYVASSLQSGVPSRFSGSGSGTEFTLTISSLQPEDFATYYCLQHNSYPYTFGQGTKLEIKR', 'NO'),
  ('B7-H4 antibody 1081 (antibody, human IgG1, kappa, V domains shown, IgG1 mAb format) VH: EVQLVESGGGLVQPGGSLRLSCAVSGGSFSGYYWNWIRQPPGKGLEWIGEIDHQGSTKYNPSLKSRVTISVDTAKNSFYLQMNSLRAEDTAVYYCARGLYNWNVDHWGQGTLVTVSS VL: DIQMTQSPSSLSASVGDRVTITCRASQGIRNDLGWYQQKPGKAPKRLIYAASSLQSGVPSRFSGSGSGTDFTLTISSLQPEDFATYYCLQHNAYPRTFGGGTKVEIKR', 'NO');

Origin of values: patent US20220017622A1
